Test system: SK-MEL-28 melanoma
test_summary: NCI-60 one-dose screen, 48 h (100 = growth as untreated, 0 = no growth, -100 = all killed)
condition_context: 10 µM
This is part of a sample that, as a whole, favours compounds with a hit. Of some 83,000 tested, about 20% had one in any assay.
readout_name: growth (%)
Respond numerically; units are % and should not be typed.

Answered cases to consult:
INSERT INTO results (compound, recorded_measurement) VALUES
  ('Cc1ccccc1[P+](Cc1ccccc1)(c1ccccc1)c1ccccc1', 27.3),
  ('C/C(=N/NC(=O)c1sc(=S)n(C)c1N)c1cc2cc(Cl)ccc2o1', 128);

Value of measured growth for the entry CCNC1(NC#N)CCCCC1 : 103

Value of measured growth for the entry CC(C)OCc1cc(CN2CCN(c3cccc(Cl)c3)CC2)c(O)c2ncccc12 : -2.34

Value of measured growth for the entry CN1CCN(c2nc(-c3cccnc3)nc3sc4c(c23)CCCCCC4)CC1 : 99.7

Value of measured growth for the entry C[C@]12CC[C@H]3[C@@H](CCC4=CC(=O)CC[C@@]43C)[C@@H]1CC[C@@H]2c1csc(N)n1 : 82.8

Value of measured growth for the entry CCc1ccc(-c2nnc(COc3ccc(-c4nc5cc(Cl)c(Cl)cc5[nH]4)cc3OC)o2)cc1 : 67.1

Value of measured growth for the entry CCN(CC)CC(O)Cc1ccc(OC)cc1 (stereo not given) : 116

Value of measured growth for the entry O=[N+]([O-])C1CC2C=CC1C2 (stereo not given) : 110

Value of measured growth for the entry COc1ccc(C2C=C(c3ccc(Cl)cc3)N=C3SC=CN32)c(Br)c1 (stereo not given) : 63.5

Value of measured growth for the entry O=C1CC[C@@H](C(=O)N[C@H]2CSSC[C@@H](C(=O)NCCc3ccccc3)NC(=O)[C@H](Cc3ccccc3)NC(=O)[C@@H]3CCCN3C(=O)[C@@H]3CCCN3C2=O)N1 : 102

Value of measured growth for the entry COc1cccc(C(=O)NNc2nc(N3CCN(C4CCCCC4)CC3)nc(N3CCN(C(c4ccccc4)c4ccccc4)CC3)n2)c1 : 64.3

Value of measured growth for the entry COc1ccc(S(=O)(=O)Nc2cc(/C=C\c3cc(OC)c(OC)c(OC)c3)ccc2OC)cc1 : 48.8

----------
Test system: SNB-75 CNS
test_summary: NCI-60 one-dose screen, 48 h
condition_context: 10 µM
This is part of a sample that, as a whole, favours compounds with a hit. Of some 83,000 tested, about 20% had one in any assay. Active and inactive are the calls of the source. The calls were made as follows: active = growth percent below 10; inactive = the rest.
Permitted responses: active, inactive

INSERT INTO measurements (molecule, category) VALUES
  ('NC(=O)C12C(=O)NC(=O)C1(C(=O)O)C21CCCC1 (stereo not drawn)', 'inactive');

QUERY: Record lookup: outcome of this test for COC(=O)c1cnc2c(c1)Oc1ccccc1-c1ccnn1-2 ?
RESULT: inactive

QUERY: Record lookup: outcome of this test for COc1cc(-c2n/c(=C\c3c(O)[nH]c4ccccc34)cc3c2=Nc2ccccc2-3)cc(OC)c1OC ?
RESULT: active

QUERY: Record lookup: outcome of this test for CCc1cc2n(n1)-c1ncc(C(=O)OC)cc1Oc1ccccc1-2 ?
RESULT: inactive

----------
The molecules listed here are annotated with their growth.
Tested on: NCI-H322M lung
test_summary: NCI-60 one-dose screen, 48 h (100 = growth as untreated, 0 = no growth, -100 = all killed)
condition_context: 10 µM
Compounds without any hit were thinned out: in the full panel of roughly 83,000, 20% have a hit.
Respond numerically; units are % and should not be typed.

INSERT INTO results (molecule, recorded_measurement) VALUES
  ('CCN(CC)CC(O)CNc1ccnc2cc(Cl)c(Cl)cc12 (stereo unspecified)', 92.1),
  ('NC1CCC(Nc2nc(NCc3ccc(-c4ccco4)nc3)c3ncn(C4CCCC4)c3n2)CC1 (stereo unspecified)', 21.4),
  ('COCCOC(=O)NC(=O)Nc1ccc(/C(=N/O)c2ccc(Cl)cc2)cc1', 30.5),
  ('COc1cc(CSc2nc3ccc(Cl)cc3c(=O)n2Cc2ccccc2)cc(OC)c1OC', 47.5),
  ('C[N+]1(CC2CO2)CCCCCC1 (stereo unspecified)', 107);

Let's switch to this molecule now.
Value of measured growth for the entry O=C1/C(=C/c2ccc(O)cc2)CSc2ccc(Cl)cc21 : 92.3
